Molecular target: C-C chemokine receptor type 5 (Homo sapiens, UniProt P51681)
Sequence (P51681 whole entry): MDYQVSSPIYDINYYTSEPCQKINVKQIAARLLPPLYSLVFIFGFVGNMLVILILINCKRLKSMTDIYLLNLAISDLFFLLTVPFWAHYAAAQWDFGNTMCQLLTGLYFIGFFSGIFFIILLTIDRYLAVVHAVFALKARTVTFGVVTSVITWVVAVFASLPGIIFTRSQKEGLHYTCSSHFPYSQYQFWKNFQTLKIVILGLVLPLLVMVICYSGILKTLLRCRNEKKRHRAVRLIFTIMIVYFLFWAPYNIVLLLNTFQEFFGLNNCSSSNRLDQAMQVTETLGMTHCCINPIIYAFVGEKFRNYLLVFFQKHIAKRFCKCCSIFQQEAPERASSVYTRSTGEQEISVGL
Test: Antagonist activity at human CCR5 receptor expressed in CHO cells assessed as inhibition of MIP-1-alpha-stmulated calcium mobilization
Catalogue of pIC50 values
Bear in mind: pIC50 is minus log10 of a mol/L concentration; give just that figure.

// solved cases for pIC50 follow
# MOLECULE, pIC50
records = [
    ("CCCCN1C(=O)[C@H](CC2CCCCC2)NC(=O)C12CCN(Cc1ccc(Oc3ccc(C)cc3)cc1)CC2.Cl", 7.10),
    ("CCCCN1C(=O)[C@H](CC2CCCCC2)NC(=O)C12CCN(Cc1ccc(-c3cccnc3)cc1)CC2.Cl.Cl", 7.15),
    ("C/C=C/CN1C(=O)C(CC(C)C)NC(=O)C12CCN(Cc1ccc(Oc3ccccc3)cc1)CC2.Cl (racemic)", 7.16),
    ("CCCCN1C(=O)[C@H](CC2CCCCC2)NC(=O)C12CCN(Cc1ccc(Oc3ccc(S(N)(=O)=O)cc3)cc1)CC2.Cl", 7.55),
    ("CCCCN1C(=O)[C@H](CC2CCCCC2)NC(=O)C12CCN(Cc1ccc(Sc3ccccc3)cc1)CC2.Cl", 6.77),
]

Request: Form field - read-out: pIC50; system: C-C chemokine receptor type 5 (Homo sapiens, UniProt P51681); submitted item: `CCCCN1C(=O)[C@H](CC2CCCCC2)NC(=O)C12CCN(Cc1nc(-c3ccccc3)oc1C)CC2`
Response: 6.35

Request: Form field - read-out: pIC50; system: C-C chemokine receptor type 5 (Homo sapiens, UniProt P51681); submitted item: `CCCCN1C(=O)[C@H](CC2CCCCC2)NC(=O)C12CCN(Cc1ccc(Oc3ccc(F)cc3)cc1)CC2.Cl`
Response: 7.04

Request: Form field - read-out: pIC50; system: C-C chemokine receptor type 5 (Homo sapiens, UniProt P51681); submitted item: CC#CCN1C(=O)C(CC(C)C)NC(=O)C12CCN(Cc1ccc(Oc3ccccc3)cc1)CC2.Cl (racemic)
Response: 7.27

Request: Form field - read-out: pIC50; system: C-C chemokine receptor type 5 (Homo sapiens, UniProt P51681); submitted item: `CCCCN1C(=O)[C@H](CC2CCCCC2)NC(=O)C12CCN(Cc1ccc(Oc3ccc(NS(C)(=O)=O)cc3)cc1)CC2.Cl`
Response: 7.40

Request: Form field - read-out: pIC50; system: C-C chemokine receptor type 5 (Homo sapiens, UniProt P51681); submitted item: CCCCN1C(=O)C(CCC)NC(=O)C12CCN(Cc1ccc(Oc3ccccc3)cc1)CC2.Cl (racemic)
Response: 7.30

Request: Form field - read-out: pIC50; system: C-C chemokine receptor type 5 (Homo sapiens, UniProt P51681); submitted item: CCCCN1C(=O)C(CC2CCCCC2)NC(=O)C12CCN(Cc1ccc(Oc3ccccc3)nc1)CC2.Cl.Cl (racemic)
Response: 7.68

Request: Form field - read-out: pIC50; system: C-C chemokine receptor type 5 (Homo sapiens, UniProt P51681); submitted item: CCCCN1C(=O)C(CC2CCCCC2)NC(=O)C12CCN(Cc1c(C)nn(-c3ccccc3)c1C)CC2.Cl.Cl (racemic)
Response: 7.46

Request: Form field - read-out: pIC50; system: C-C chemokine receptor type 5 (Homo sapiens, UniProt P51681); submitted item: CCCCN1C(=O)C(CC2CCCCC2)NC(=O)C12CCN(Cc1csc(-c3ccccc3)n1)CC2 (racemic)
Response: 6.24

Request: Form field - read-out: pIC50; system: C-C chemokine receptor type 5 (Homo sapiens, UniProt P51681); submitted item: `CCCCN1C(=O)[C@H](CC2CCCCC2)NC(=O)C12CCN(Cc1ccc(C(=O)Nc3ccccc3)cc1)CC2.Cl`
Response: 7.24
